The reported numbers originate from patent US9273057B2.

Would you mind telling me the reported IC50 of each entry?
- assay target: CK2A1 (CK2α/β) (Homo sapiens)
- Sequence (P68400 whole entry, species assumed): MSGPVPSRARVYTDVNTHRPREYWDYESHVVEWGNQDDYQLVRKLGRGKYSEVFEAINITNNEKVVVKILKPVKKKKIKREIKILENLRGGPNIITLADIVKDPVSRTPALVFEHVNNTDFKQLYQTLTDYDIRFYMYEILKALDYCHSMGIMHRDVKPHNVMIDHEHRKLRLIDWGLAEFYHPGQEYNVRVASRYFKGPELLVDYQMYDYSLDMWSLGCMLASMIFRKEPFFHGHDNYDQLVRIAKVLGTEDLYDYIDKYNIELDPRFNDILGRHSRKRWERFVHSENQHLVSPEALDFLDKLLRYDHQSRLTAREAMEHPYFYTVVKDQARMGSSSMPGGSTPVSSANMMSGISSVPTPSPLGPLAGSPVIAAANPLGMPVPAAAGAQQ
- Sequence (P67870 whole entry partner, species assumed): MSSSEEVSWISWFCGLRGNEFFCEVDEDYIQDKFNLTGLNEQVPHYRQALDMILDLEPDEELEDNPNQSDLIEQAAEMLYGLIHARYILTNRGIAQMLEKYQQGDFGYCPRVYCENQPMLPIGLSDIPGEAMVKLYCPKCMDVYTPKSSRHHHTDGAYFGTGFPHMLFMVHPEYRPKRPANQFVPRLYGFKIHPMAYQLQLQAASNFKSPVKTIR
- protocol notes: CK2 kinase assay, CK2A1 (CK2α/β)
- Assay type: biochemical
- condition label: Table A; read-out: CK2A1 (CK2α/β) (IC50)

Q: Consider the compound shown here: CCNc1nc(Nc2cc(NC(=O)OC)cc(C3CCN(C)CC3)c2Cl)nn2c(C#N)cnc12 [Example 398] What is its recorded IC50?
Ans: 3.3 nM

Q: N#Cc1cc(Nc2nc(NC3CC3)c3ncc(C#N)n3n2)c(Cl)c(C(O)CN2CCOCC2)c1 (stereo not shown) [Example 684] , same question.
Ans: 1.34 nM

Q: CC(CCO)c1cc(C#N)cc(Nc2nc(NC3CC3)c3ncc(C#N)n3n2)c1Cl (stereo not shown) [Example 574] , same question.
Ans: 0.44 nM

Q: N#Cc1cc(Nc2nc(NC3CC3)c3ncc(C#N)n3n2)c(OCCN2CCOCC2)cc1OCCN1CCOCC1 [Example 422] , same question.
Ans: 2.73 nM
